Reported half-life by item:
- Tested on: human liver microsomes, metabolic stability half-life
- TEST_DETAILS: NCATS Human Liver Microsomal (HLM) Stability Profiling
- CONDITION_SET: higher = more stable; screened at 1 µM (by protocol)

Form: compound = `CCCN(CCC)CCc1cccc2c1CC(=O)N2` ; half-life = > 2 h

Form: compound = CN1CC(O)c2cc(N=NC(N)=O)c(O)cc21 (stereo not drawn) ; half-life = > 2 h

Form: compound = `Cc1c(-c2ccnn2C)cc(C(=O)NCc2ccc(S(C)(=O)=O)cn2)c(=O)n1-c1cccc(C(F)(F)F)c1` ; half-life = > 2 h

###

- Tested on: human liver microsomes, metabolic stability half-life
- TEST_DETAILS: NCATS Human Liver Microsomal (HLM) Stability Profiling
- CONDITION_SET: higher = more stable; screened at 1 µM (by protocol)
Reported log10 half-life by item:
In our notation, the value equals log10 of half-life in min.

The following compounds have reported results that may help.
1) CCOC(=O)C1(c2ccccc2)CCN(CCc2ccc(N)cc2)CC1 = 1.94
2) CCOc1cc(NC(C)=O)ccc1C(=O)OC = 0.83
3) Nc1nccs1 = 1.73
4) COc1ccc(-n2nc3c(N4CCCC(C(=O)NCc5ccccc5C)C4)nnc(C)c3c2C)cc1 (stereo not given) = 0.39
5) CC(C)c1ccc(-n2ncc3c(=O)n(CC(=O)Nc4cc(F)ccc4Cl)cnc32)cc1 = 1.38
6) CCC(=O)NS(=O)(=O)c1ccc(-c2c(-c3ccccc3)noc2C)cc1 = 1.69

Field log10 half-life (system: human liver microsomes, metabolic stability half-life) for entry `COC(=O)c1cc(S(N)(=O)=O)ccc1OC` = 1.64

Field log10 half-life (system: human liver microsomes, metabolic stability half-life) for entry CCOc1ccc(-n2c(C(C)N(Cc3cccnc3)C(=O)Cc3ccc(F)c(C(F)(F)F)c3)nc3ncccc3c2=O)cc1 (stereo not given) = 0.69

Field log10 half-life (system: human liver microsomes, metabolic stability half-life) for entry COc1cccc(CCc2ccccc2OCC(CN(C)C)OC(=O)CCC(=O)O)c1 (stereo not given) = 1.59

Field log10 half-life (system: human liver microsomes, metabolic stability half-life) for entry `Cc1cccc(N(C)C(=S)Oc2ccc3c(c2)CCC3)c1` = 0.29

Field log10 half-life (system: human liver microsomes, metabolic stability half-life) for entry `O=C(CSc1nnc(-c2cccc(F)c2)c(-c2cccc(F)c2)n1)NC1CCCCC1` = 1.03

Field log10 half-life (system: human liver microsomes, metabolic stability half-life) for entry CC(Cc1ccc2c(c1)OCO2)NCC(O)c1ccc(O)c(O)c1 (stereo not given) = 1.27

###

- Test system: human liver microsomes, metabolic stability half-life
- TEST_DETAILS: NCATS Human Liver Microsomal (HLM) Stability Profiling
- CONDITION_SET: higher = more stable; screened at 1 µM (by protocol)
Reported half-life by item:
Could you give me the number in h? Just the number is fine.

The following molecules have reported results that may help.
1) COc1ccc(-c2oc3ncn4nc(COc5c(C)cccc5C)nc4c3c2-c2ccc(OC)cc2)cc1 = 0.22
2) COC1CCN(C(=O)c2cc(Cc3n[nH]c(=O)c4ccccc34)ccc2F)CC1 = 1.27
3) CN1CCC2=C(C1)c1ccccc1Cc1ccccc12 = 1.58

Attention now turns to another entry.
Form: molecule = `NC1(c2ccc(-c3nc4ccn5c(=O)[nH]nc5c4cc3-c3ccccc3)cc2)CCC1` ; half-life = 1.38
